Data origin, for the record: paper PMC6925144

TSA(without NAD+) / Inhibitory assay (Promega kit) / Mean (%) overview
targetUnderTest: NAD-dependent deacetylase Sirtuin 1 (human, UniProt Q96EB6)
Sequence (Q96EB6 2-747 limits assumed): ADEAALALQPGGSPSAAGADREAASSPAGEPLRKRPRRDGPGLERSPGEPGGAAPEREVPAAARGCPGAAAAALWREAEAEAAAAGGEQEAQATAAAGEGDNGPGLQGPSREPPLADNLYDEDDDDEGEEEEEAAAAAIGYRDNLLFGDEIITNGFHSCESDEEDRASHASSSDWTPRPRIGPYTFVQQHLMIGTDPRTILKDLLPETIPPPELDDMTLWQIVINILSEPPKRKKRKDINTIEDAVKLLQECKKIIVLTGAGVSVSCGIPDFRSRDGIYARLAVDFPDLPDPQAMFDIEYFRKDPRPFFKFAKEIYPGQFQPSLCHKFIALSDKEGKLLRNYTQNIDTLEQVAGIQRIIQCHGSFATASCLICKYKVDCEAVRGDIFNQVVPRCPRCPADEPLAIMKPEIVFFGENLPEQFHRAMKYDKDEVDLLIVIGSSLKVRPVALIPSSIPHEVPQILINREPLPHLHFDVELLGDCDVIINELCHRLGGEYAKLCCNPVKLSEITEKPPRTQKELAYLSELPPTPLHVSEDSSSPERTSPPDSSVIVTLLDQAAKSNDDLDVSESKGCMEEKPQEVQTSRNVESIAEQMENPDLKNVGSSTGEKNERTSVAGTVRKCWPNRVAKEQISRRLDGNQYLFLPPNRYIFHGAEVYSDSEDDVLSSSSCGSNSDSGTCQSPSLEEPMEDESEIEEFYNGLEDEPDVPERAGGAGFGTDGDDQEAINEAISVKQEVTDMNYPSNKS
test: primary screen, percent inhibition; higher = more effect of the substance
Design: mean of n = 4
settings: 10 µM
Report the value in % with no unit label.

>  <moleculeSmiles>
O=C1/C(=C/NNC(=O)C23CC4CC(CC(C4)C2)C3)c2ccccc2C(=O)N1Cc1ccccc1

>  <endpointUnit>
%

>  <experimentalValue>
-173

$$$$
>  <moleculeSmiles>
CCOc1cc(/C=N/NC(=O)c2cc3c(s2)CCCC3)ccc1OCC(=O)Nc1cccc(C(F)(F)F)c1

>  <endpointUnit>
%

>  <experimentalValue>
-2.14

$$$$

Lab note: next compound to report on.
Exercise: I have this compound here, CCCCCCCCNC(=O)/C(C#N)=C/c1c[nH]c2ccccc12 , and I need its recorded TSA(without NAD+) / Inhibitory assay (Promega kit) / Mean (%).
Key: 9.56
